System: A2058 melanoma cell line
Test: MTS cell viability assay, A2058
Assay type: cell-based
Conditions: A2058, 1 μM, 48 h, MTS
Procedure: To determine if novel synthetic thioindirubins have antitumor activities, we performed an MTS cell viability assay. Initially, we screened them at […] final concentration with A2058 melanoma and DU145 prostate cancer cell lines. […] Viable cell numbers were determined by tetrazolium conversion to its formazan dye. Absorbance was measured at 490 nm using the BMG LABTECH plate reader. […] IC50 values were determined using CalcuSyn software (Biosoft).
Entries and their measured Cell viability (% control) A2058 1 μM follow.

Worked examples follow.
Look up Cell viability (% control) A2058 1 μM for this compound: Cc1ccc2c(c1)C(=O)/C(=C1/C(=O)Nc3ccccc31)S2
>100 % control

Look up Cell viability (% control) A2058 1 μM for this compound: N#Cc1ccc2c(c1)C(=O)/C(=C1/C(=O)Sc3ccccc31)N2
95 % control

Look up Cell viability (% control) A2058 1 μM for this compound: COC(=O)c1ccc2c(c1)NC(=C1\C(=O)Sc3ccccc31)/C2=N/O
92 % control

Look up Cell viability (% control) A2058 1 μM for this compound: Cc1ccc2c(c1)C(=N\O)/C(=C1/C(=O)Nc3ccccc31)S2
84 % control

Look up Cell viability (% control) A2058 1 μM for this compound: COC(=O)c1ccc2c(c1)C(=O)/C(=C1/C(=O)Sc3ccccc31)N2
92 % control

Look up Cell viability (% control) A2058 1 μM for this compound: O=C1Sc2ccccc2/C1=C1/Nc2cc(Cl)ccc2/C1=N\O
86 % control

Next:
Look up Cell viability (% control) A2058 1 μM for this compound: N#Cc1ccc2c(c1)C(=N\O)/C(=C1/C(=O)Nc3ccccc31)S2
89 % control

Look up Cell viability (% control) A2058 1 μM for this compound: COC(=O)c1ccc2c(c1)C(=N\O)/C(=C1/C(=O)Nc3ccccc31)S2
90 % control

Look up Cell viability (% control) A2058 1 μM for this compound: O=C1Sc2ccccc2/C1=C1/Nc2cc(Cl)ccc2C1=O
84 % control

Look up Cell viability (% control) A2058 1 μM for this compound: O=C1Sc2ccccc2/C1=C1/Nc2ccc(Br)cc2C1=O
97 % control

Look up Cell viability (% control) A2058 1 μM for this compound: O=C1Nc2ccccc2/C1=C1/Sc2ccccc2C1=O
99 % control

Look up Cell viability (% control) A2058 1 μM for this compound: COC(=O)c1ccc2c(c1)S/C(=C1\C(=O)Nc3ccccc31)C2=O
93 % control
